Target: T1, EsCas13d, nuclease-dead (Eubacterium siraeum, UniProt B0MS50, R295A;H300A;R849A;H854A)
T1 sequence: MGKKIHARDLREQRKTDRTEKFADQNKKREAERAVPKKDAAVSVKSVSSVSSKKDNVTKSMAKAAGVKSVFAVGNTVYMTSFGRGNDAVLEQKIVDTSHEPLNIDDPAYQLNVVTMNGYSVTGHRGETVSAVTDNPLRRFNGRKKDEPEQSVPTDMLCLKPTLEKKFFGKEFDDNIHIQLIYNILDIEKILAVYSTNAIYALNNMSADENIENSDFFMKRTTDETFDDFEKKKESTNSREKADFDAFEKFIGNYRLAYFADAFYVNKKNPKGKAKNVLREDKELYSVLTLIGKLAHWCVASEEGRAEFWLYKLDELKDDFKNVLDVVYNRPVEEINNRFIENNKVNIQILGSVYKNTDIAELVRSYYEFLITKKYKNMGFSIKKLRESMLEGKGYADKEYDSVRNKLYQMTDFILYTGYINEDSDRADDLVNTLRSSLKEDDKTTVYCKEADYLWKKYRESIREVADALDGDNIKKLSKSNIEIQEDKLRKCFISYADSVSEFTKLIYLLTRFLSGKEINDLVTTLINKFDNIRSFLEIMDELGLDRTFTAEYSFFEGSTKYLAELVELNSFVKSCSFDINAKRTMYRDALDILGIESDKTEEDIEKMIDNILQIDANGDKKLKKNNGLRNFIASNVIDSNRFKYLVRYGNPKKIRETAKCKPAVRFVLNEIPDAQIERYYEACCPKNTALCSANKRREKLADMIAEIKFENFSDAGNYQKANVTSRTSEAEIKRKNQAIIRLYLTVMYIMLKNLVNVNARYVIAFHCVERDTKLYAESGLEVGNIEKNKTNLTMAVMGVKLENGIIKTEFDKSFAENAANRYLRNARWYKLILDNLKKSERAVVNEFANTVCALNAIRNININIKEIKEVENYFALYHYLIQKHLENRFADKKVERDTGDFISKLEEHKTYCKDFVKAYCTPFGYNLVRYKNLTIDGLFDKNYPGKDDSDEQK
Test: crRNA (strand 1, pre-loaded); Mg2+; 40 mM Tris-HCl pH 7.5, 150 mM NaCl, 6 mM MgCl2, 1 mM DTT, 0.1% Tween-20, 0.2 mg/ml BSA; 25 C; 10 min per concentration, then washed
Settings: tags: His6-TwinStrep-SUMO cleaved; N-terminal SNAP kept (SNAP-Surface 488); label: 3' end held by stalled T7 RNA polymerase
Parameter: Kd. Scope: all listed entries.

>  <Binder>
target 3 U2G,A9C (mixed) RNA 1: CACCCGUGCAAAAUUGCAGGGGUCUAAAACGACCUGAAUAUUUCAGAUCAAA RNA 2: GGGAAUGGAUCCACAUCUACGAAUUCGUUUUUGAUCUGAAAUCUUCAGGGCUGCAGAUCGGAAGAGCACACGU

>  <Kd>
106 nM

$$$$
>  <Binder>
target 1 MT 5'PFS CCU 3'PFS AAU (mixed) RNA 1: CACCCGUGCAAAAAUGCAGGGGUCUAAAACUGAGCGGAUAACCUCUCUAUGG RNA 2: GGGAAUGGAUCCACAUCUACGAAUUCCCUCCAUAGAGAGGUUAUCCGCUCAAAUAGAUCGGAAGAGCACACGU

>  <Kd>
16.7 nM

$$$$
>  <Binder>
target 2 MT 5'PFS AUC 3'PFS AUG (mixed) RNA 1: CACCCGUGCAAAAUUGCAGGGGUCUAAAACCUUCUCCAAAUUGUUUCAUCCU RNA 2: GGGAAUGGAUCCACAUCUACGAAUUCAUCAGGAUGAAACAAUUUGGAGAAGAUGAGAUCGGAAGAGCACACGU

>  <Kd>
~70 nM

$$$$
>  <Binder>
target 1 insA 3' of 7,insG 3' of 1 (mixed) RNA 1: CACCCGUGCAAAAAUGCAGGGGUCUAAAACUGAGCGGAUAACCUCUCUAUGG RNA 2: GGGAAUGGAUCCACAUCUACGAAUUCGUACCAUAGAGAGGUUAUCACGCUCAGCCGAGAUCGGAAGAGCACACGU

>  <Kd>
6.8 nM

$$$$
>  <Binder>
target 2 MT 5'PFS UAG 3'PFS UCC (mixed) RNA 1: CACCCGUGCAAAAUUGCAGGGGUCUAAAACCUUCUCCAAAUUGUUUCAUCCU RNA 2: GGGAAUGGAUCCACAUCUACGAAUUCUAGAGGAUGAAACAAUUUGGAGAAGUCCAGAUCGGAAGAGCACACGU

>  <Kd>
7.9 nM

$$$$
>  <Binder>
target 1 MT 5'PFS UCA 3'PFS CCG (mixed) RNA 1: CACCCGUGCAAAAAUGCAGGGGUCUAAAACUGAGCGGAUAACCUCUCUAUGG RNA 2: GGGAAUGGAUCCACAUCUACGAAUUCUCACCAUAGAGAGGUUAUCCGCUCACCGAGAUCGGAAGAGCACACGU

>  <Kd>
~25 nM

$$$$
>  <Binder>
target 1 A9U,C22A (mixed) RNA 1: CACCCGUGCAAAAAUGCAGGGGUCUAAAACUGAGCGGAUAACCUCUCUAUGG RNA 2: GGGAAUGGAUCCACAUCUACGAAUUCGUAACAUAGAGAGGUUUUCCGCUCACCGAGAUCGGAAGAGCACACGU

>  <Kd>
16.9 nM

$$$$
>  <Binder>
target 1 complement block 9-11 (mixed) RNA 1: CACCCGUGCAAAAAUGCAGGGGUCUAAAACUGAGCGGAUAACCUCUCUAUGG RNA 2: GGGAAUGGAUCCACAUCUACGAAUUCGUACCAUAGAGAGGAAUUCCGCUCACCGAGAUCGGAAGAGCACACGU

>  <Kd>
22.9 nM

$$$$
